Molecular target: T1, ATF3W_aeg (synthetic construct)
T1 chain: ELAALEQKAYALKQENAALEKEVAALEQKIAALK
Assay: ITC
pKd: −log10 of the molar value.
measuredParameter: pKd

[
  {
    "binder": "TECLQKESEKLESVNAELKAQIEELKNEKQHLIYM [ATF3 leucine zipper]",
    "value": 6.82
  }
]
